- assay_target: SoxS (Escherichia coli, UniProt P0A9E2)
- Sequence (P0A9E2 1-107): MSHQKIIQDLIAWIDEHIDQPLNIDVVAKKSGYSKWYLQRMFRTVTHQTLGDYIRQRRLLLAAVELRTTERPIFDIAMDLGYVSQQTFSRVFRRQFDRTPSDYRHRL
- test: Chemiluminescence-based SoxS-DNA binding assay
- Parameters: made in house; species or system E. coli
- condition_info: dose response analysis (footnote c); read-out: in vitro SoxS activity: concentration necessary to inhibit DNA-protein binding by 50% (EC50)
pEC50: −log10 of the molar value.
compounds and their reported pEC50

{"compound": "CN(C)c1ccc(C(=O)Nc2ccc(-c3nc4ccc([N+](=O)[O-])cc4n3O)cc2)cc1 [AH]", "pEC50": "> 6.05"}
{"compound": "O=C(O)c1cccc(-c2nc3ccc([N+](=O)[O-])cc3n2O)c1 [BU]", "pEC50": "< 5.30"}
{"compound": "O=[N+]([O-])c1ccc2nc(-c3ccc(-c4ccccc4)o3)n(O)c2c1 [BQ]", "pEC50": "< 5.30"}
{"compound": "Cc1ccc(C(=O)Nc2ccc(-c3nc4ccc([N+](=O)[O-])cc4n3O)cc2)cc1 [D]", "pEC50": "5.31 to 6.00"}
{"compound": "O=C(Nc1ccc(-c2nc3ccc([N+](=O)[O-])cc3n2O)cc1)c1cccc(Cl)c1 [CG]", "pEC50": "5.31 to 6.00"}
{"compound": "CN(C)c1ccc(-c2nc3ccc([N+](=O)[O-])cc3n2O)cc1 [BP]", "pEC50": "< 5.30"}

Task: # get_value(readout='pEC50', item= O=C(O)Cn1c(-c2nc3ccc([N+](=O)[O-])cc3n2O)nc2ccccc21 [BS] )
Output: 5.31 to 6.00
